Test: Ratio of Cmax/Cmin of Atazanavir in Sprague-Dawley rat at 3 ml/kg,po measured after 24 hrs by UPLC-MS/MS analysis
Type: ADME
Settings: in vivo
MEASURED QUANTITY: Ratio
Hey, just send me the number, nothing else.

COC(=O)N[C@H](C(=O)N[C@@H](Cc1ccccc1)[C@H](CN(Cc1ccc(-c2ccccn2)cc1)NC(=O)[C@@H](NC(=O)OC)C(C)(C)C)OC(=O)OC(OC(=O)C[C@H](N)Cc1cc(F)c(F)cc1F)C(C)C)C(C)(C)C (stereo in doubt; 3ac)
36.4

Quickly give me recorded Ratio for COC(=O)N[C@H](C(=O)N[C@@H](Cc1ccccc1)[C@H](CN(Cc1ccc(-c2ccccn2)cc1)NC(=O)[C@@H](NC(=O)OC)C(C)(C)C)OC(=O)OC(OC(=O)[C@H](C(C)C)N(C)C)C(C)C)C(C)(C)C (stereo in doubt; 5g)
194.1

Quickly give me recorded Ratio for COC(=O)N[C@H](C(=O)N[C@@H](Cc1ccccc1)[C@H](CN(Cc1ccc(-c2ccccn2)cc1)NC(=O)[C@@H](NC(=O)OC)C(C)(C)C)OC(=O)OC(OC(=O)[C@H](C)N)C(C)C)C(C)(C)C (stereo in doubt; 3q)
1505

Quickly give me recorded Ratio for CN[C@H](C(=O)OC(OC(=O)O[C@@H](CN(Cc1ccc(-c2ccccn2)cc1)NC(=O)[C@@H](NC(=O)OC)C(C)(C)C)[C@H](Cc1ccccc1)NC(=O)[C@@H](NC(=O)OC)C(C)(C)C)C(C)C)C(C)C (stereo in doubt; 5e)
364.4
